Attribution: patent US11976072B2

molecular target: human DGKα (Homo sapiens); assay: DGKα Biochemical Activity Assay (ADP-Glo); settings: recombinant DGKα 1 nM, 100 μM ATP, 18:1 DAG/POPS/octylglucoside micelles, 1 hour at 25° C.; geometric mean; read-out: HTBS DGKa 1X ATP KM IC50
Listed next: entries and their corresponding pIC50.
Bear in mind: pIC50 is minus log10 of a mol/L concentration; give just that figure.

Solved entries:
CC(C)(C)C#Cc1cc(N(CC(F)F)c2nc3nncn3c3ccc(F)cc23)ccn1 [Example 101]: 8.26
COCCN(c1cc(F)cc(C#CC2(C(F)(F)F)CC2)c1)c1nc2nncn2c2cccc(F)c12 [Example 98]: 7.07
Cc1cnc(C(C)(C)C#Cc2cccc3c2CCCN3c2nc3nnc(C)n3c3cccc(F)c23)o1 [Example 72]: 7.70

Next item in the queue.
Prompt: Recorded pIC50 for Cc1nnc2nc(N3CCCc4c(C#CC5(O)CCC5)cccc43)c3cc(F)ccc3n12 [Example 28] , please?
Response: 8.02

* * *

Listed next: entries and their corresponding pIC50.
biological target: human DGKα (Homo sapiens); test: DGKα Biochemical Activity Assay (ADP-Glo); details: recombinant DGKα 1 nM, 100 μM ATP, 18:1 DAG/POPS/octylglucoside micelles, 1 hour at 25° C.; geometric mean; read-out: HTBS DGKa 1X ATP KM IC50
Bear in mind: pIC50 is minus log10 of a mol/L concentration; give just that figure.

Solved entries:
Cc1nnc2nc(N3CCCc4c3ccnc4C#CC3(C)CC3)c3c(F)c(F)ccc3n12: 8.14
Cc1cccc2c1c(N1CCOCc3c(C#CC4(C)CC4)cccc31)nc1nnc(C)n12: 7.61

Prompt: Recorded pIC50 for `Cc1nnc2nc(N3CCCCc4c(C#CC(C)(C)NC(=O)C5(C(F)(F)F)CC5)cccc43)c3c(F)c(F)ccc3n12` , please?
Response: 7.91

Prompt: Recorded pIC50 for `Fc1ccc2c(c(N3CCCc4c(C#CC5CC(F)(F)C5)cncc43)nc3nncn32)c1F` , please?
Response: 8.09

* * *

Listed next: entries and their corresponding IC50.
biological target: UniProtKB P23743; assay: DGKα Biochemical Activity Assay (ADP-Glo); conditions: recombinant DGKα 1 nM, 100 μM ATP, 18:1 DAG/POPS/octylglucoside micelles, 1 hour at 25° C.; geometric mean; read-out: HTBS DGKa 1X ATP KM IC50
Write the value in nM as a bare number.

Solved entries:
Cc1nnc2nc(N3CCCc4c(C#CC5CCC5)cccc43)c3c(F)cccc3n12: 39.3
CC(C)(O)C#Cc1cc(F)cc(N(CC(F)F)c2nc3nncn3c3c(Cl)cc(F)cc23)c1: 11.9
Cc1nnc2nc(N3CCOCc4c(C#CC(C)(C)NS(=O)(=O)C5(C(F)F)CC5)cccc43)c3c(F)cccc3n12: 44.9

Next item in the queue.
Prompt: Recorded IC50 for `Cc1nnc2nc(N3CCCc4c(C#CC5(CO)CC5)cccc43)c3cc(F)ccc3n12` , please?
Response: 3.86

* * *

molecular target: human DGKα (Homo sapiens, UniProt P23743); test: DGKα Biochemical Activity Assay (ADP-Glo); conditions: recombinant DGKα 1 nM, 100 μM ATP, 18:1 DAG/POPS/octylglucoside micelles, 1 hour at 25° C.; geometric mean; read-out: HTBS DGKa 1X ATP KM IC50
Sequence (P23743 whole entry): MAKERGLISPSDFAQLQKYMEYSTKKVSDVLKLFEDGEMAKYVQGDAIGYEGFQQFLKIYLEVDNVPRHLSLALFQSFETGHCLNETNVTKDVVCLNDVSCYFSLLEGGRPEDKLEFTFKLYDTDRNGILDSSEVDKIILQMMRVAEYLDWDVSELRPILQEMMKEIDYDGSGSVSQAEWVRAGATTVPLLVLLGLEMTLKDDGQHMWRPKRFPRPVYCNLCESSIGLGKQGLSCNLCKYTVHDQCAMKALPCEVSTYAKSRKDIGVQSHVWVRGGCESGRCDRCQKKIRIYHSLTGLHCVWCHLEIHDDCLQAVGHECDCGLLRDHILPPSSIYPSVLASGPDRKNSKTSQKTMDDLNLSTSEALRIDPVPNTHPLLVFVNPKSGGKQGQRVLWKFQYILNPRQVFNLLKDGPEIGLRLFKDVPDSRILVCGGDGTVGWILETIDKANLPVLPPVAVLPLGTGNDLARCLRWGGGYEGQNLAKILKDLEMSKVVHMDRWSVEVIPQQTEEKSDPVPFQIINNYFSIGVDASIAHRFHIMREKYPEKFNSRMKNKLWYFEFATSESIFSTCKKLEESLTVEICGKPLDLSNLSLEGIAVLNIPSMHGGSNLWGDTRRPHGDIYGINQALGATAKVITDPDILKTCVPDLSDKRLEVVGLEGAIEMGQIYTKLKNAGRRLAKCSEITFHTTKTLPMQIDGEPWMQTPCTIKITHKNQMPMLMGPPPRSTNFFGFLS
pIC50: −log10 of the molar value.
The label depends only on pIC50: T if it is at least 8, F if it is smaller.

Worked examples, 2 molecules total:
Cc1nnc2nc(N3CCOCc4c(C#CC5CC5)cccc43)c3cc(C#N)ccc3n12 [Example 108]: T
Cc1nnc2nc(N(CC(F)F)c3ccnc(C#CC(C)(C)C(F)(F)F)c3)c3c(F)c(F)ccc3n12 [Example 84]: T

Please look at the following molecule next.
Prompt: Dear colleague, could you confirm whether Cc1nnc2nc(N3CCCc4c(C#Cc5cn[nH]c5)cccc43)c3c(F)cccc3n12 [Example 212] has pIC50 at or above 8?
Response: F

* * *

target: human DGKα (Homo sapiens); assay: DGKα Biochemical Activity Assay (ADP-Glo); conditions: recombinant DGKα 1 nM, 100 μM ATP, 18:1 DAG/POPS/octylglucoside micelles, 1 hour at 25° C.; geometric mean; read-out: HTBS DGKa 1X ATP KM IC50
propertyMeasured: IC50 (nM)
Write the value in nM as a bare number.

Solved entries:
Fc1cccc2c1c(N1CCCc3c(C#CC4CCC4)cncc31)nc1nncn12: 14.2
Cc1nnc2nc(N3CCOCc4c(C#Cc5ccnn5C)cccc43)c3c(F)cccc3n12: 9.08
Cc1nnc2nc(N(CC(F)F)c3cc(F)cc(C#CC4(O)CCC4)c3)c3c(F)c(F)ccc3n12: 7.08

Prompt: Recorded IC50 for `Cc1nnc2nc(N3CCN(C)Cc4c(C#CC5(C(F)(F)F)CC5)cccc43)c3c(F)c(F)ccc3n12` , please?
Response: 7.3

Prompt: Recorded IC50 for `Cc1nnc2nc(N(CC(F)F)c3cccc(C#CC4(C)CC4)c3F)c3cc(F)ccc3n12` , please?
Response: 13.5

Prompt: Recorded IC50 for `Cc1nnc2nc(N(CC(F)F)c3ccnc(C#CC(C)(C)O)c3F)c3c(F)cccc3n12` , please?
Response: 8.25

Prompt: Recorded IC50 for `Cc1nnc2nc(N(CC(F)F)c3ccnc(C#CC4CC4)c3)c3c(F)c(F)ccc3n12` , please?
Response: 10.4

Prompt: Recorded IC50 for `Cc1nnc2nc(N(CC(F)F)c3ccnc(C#CC4(C)CC4)c3)c3cc(F)ccc3n12` , please?
Response: 6.22

* * *

biological target: UniProt:P23743; assay: DGKα Biochemical Activity Assay (ADP-Glo); conditions: recombinant DGKα 1 nM, 100 μM ATP, 18:1 DAG/POPS/octylglucoside micelles, 1 hour at 25° C.; geometric mean; read-out: HTBS DGKa 1X ATP KM IC50
propertyMeasured: pIC50
Bear in mind: pIC50 is minus log10 of a mol/L concentration; give just that figure.

Fc1ccc2c(c1)c(N(CC(F)F)c1ccnc(C#CC3(C(F)(F)F)CC3)c1)nc1nncn12 [Example 103]: 8.29
COc1ccc(C#Cc2nccc3c2CCCN3c2nc3nnc(C)n3c3cccc(F)c23)cn1 [Example 75]: 7.54
Fc1ccc2c(c(N3CCCc4c(C#CC5(C(F)F)CC5)cncc43)nc3nncn32)c1F [Example 15]: 8.15

Next item in the queue.
Prompt: Form field - read-out: pIC50; system: UniProt:P23743; submitted item: Cc1nnc2nc(N3CCOCc4c3ccnc4C#CC3(C(C)(F)F)CC3)c3cc(F)ccc3n12 [Example 133]
Response: 7.82

* * *

target: human DGKα (Homo sapiens, UniProt P23743); assay: DGKα Biochemical Activity Assay (ADP-Glo); settings: recombinant DGKα 1 nM, 100 μM ATP, 18:1 DAG/POPS/octylglucoside micelles, 1 hour at 25° C.; geometric mean; read-out: HTBS DGKa 1X ATP KM IC50;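 also: luminescent detection of ADP produced as DGKα phosphorylates DAG to phosphatidic acid, IC50 from four-parameter nonlinear curve fit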
We label by threshold. Values of IC50 strictly beneath 8 nM are Criterion met. Values of 8 nM and up are Criterion not met.

Worked examples, 2 compounds total:
Cc1nnc2nc(N3CCN(C)Cc4c(C#CC(C)(C)C(F)(F)F)cccc43)c3c(F)cccc3n12: Criterion not met
Cc1nnc2nc(N(CC(F)F)c3cccc(C#CC(C)(C)C(F)F)c3F)c3c(F)cccc3n12: Criterion not met

Prompt: Confirm or reject: IC50 of `CC1(C#Cc2cccc3c2COCCN3c2nc3nncn3c3c(F)ccc(F)c23)CC1` lies strictly below 8 nM
Response: Criterion met

Prompt: Confirm or reject: IC50 of `Cc1nc(C#Cc2cccc3c2CCCN3c2nc3nnc(C)n3c3ccc(F)cc23)cs1` lies strictly below 8 nM
Response: Criterion met

Prompt: Confirm or reject: IC50 of `Fc1cc(Cl)c2c(c1)c(N1CCCc3c(C#CC4(C(F)(F)F)CC4)cccc31)nc1nncn12` lies strictly below 8 nM
Response: Criterion not met

Prompt: Confirm or reject: IC50 of `Cc1nnc2nc(N3CCOCc4c(C#CC5(NC(=O)C6(C(F)(F)F)CC6)CC5)cccc43)c3c(F)cccc3n12` lies strictly below 8 nM
Response: Criterion met

Prompt: Confirm or reject: IC50 of `Cc1nnc2nc(N3CCOCc4c(C#CC(C)(C)C(C)(F)F)cccc43)c3c(F)c(F)ccc3n12` lies strictly below 8 nM
Response: Criterion met

Prompt: Confirm or reject: IC50 of `CC(C)(O)C#Cc1cccc2c1CCCCN2c1nc2nncn2c2c(F)ccc(F)c12` lies strictly below 8 nM
Response: Criterion met

Prompt: Confirm or reject: IC50 of Cc1nnc2nc(N3CCOCc4c(C#CC(C)(C)NC(=O)OC(C)C(F)(F)F)cccc43)c3c(F)cccc3n12 (stereo not shown) lies strictly below 8 nM
Response: Criterion met

Prompt: Confirm or reject: IC50 of `Cc1nnc2nc(N3CCCc4c(C#CC5(C)CC5)cncc43)c3c(F)c(F)ccc3n12` lies strictly below 8 nM
Response: Criterion not met

Prompt: Confirm or reject: IC50 of `Fc1ccc2c(c(N3CCOCc4c(C#CC5(C(F)(F)F)CC5)cccc43)nc3nncn32)c1F` lies strictly below 8 nM
Response: Criterion met

Prompt: Confirm or reject: IC50 of `Cc1nnc2nc(N3CCOCc4c(C#CC(C)(C)NC(=O)c5cn(C)nc5C(F)(F)F)cccc43)c3c(F)cccc3n12` lies strictly below 8 nM
Response: Criterion not met
